Measured values drawn from PubChem BioAssay AID1159580 for this set.

Assay: chemical genetic growth profiling, strain panel (AID 1159580);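 further: tested at 20 µM; growth read once vehicle control cultures reached saturation at 30 °C; 1 = growth at the plate median or of vehicle wells; lower values mean less growth of the strain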
Conditions: S. cerevisiae deletion strains, growth OD, locus YCL011C, strain gbp2, stronger effect = lower value
Among all 5,500 compounds or so, about 2,000 (36%) were called active. Inconclusive results (about 18%) are left out. This is one part of the list.
quantity measured: normalized growth
No unit in the answer, please; the number alone is enough.

>>> measured_value("CC1Cc2ccccc2N1NC(=O)c1ccc(Cl)c(S(N)(=O)=O)c1 (configuration not stated)")
1.01
>>> measured_value("C/C=C/CC(C)C(O)C1C(=O)NC(CC)C(=O)N(C)CC(=O)N(C)C(CC(C)C)C(=O)NC(C(C)C)C(=O)N(C)C(CC(C)C)C(=O)NC(C)C(=O)NC(C)C(=O)N(C)C(CC(C)C)C(=O)N(C)C(CC(C)C)C(=O)N(C)C(C(C)C)C(=O)N1C (configuration not stated)")
1.01
>>> measured_value("Cc1ccc(-c2nc3ccc(C)cn3c2CC(=O)N(C)C)cc1")
1.01
>>> measured_value("COc1cc(O)c2c(=O)cc(-c3ccc(OC)c(-c4c(O)cc(O)c5c(=O)cc(-c6ccc(O)cc6)oc45)c3)oc2c1")
1.02
>>> measured_value("C[C@@H](CO)NC(=O)C1C=C2c3cccc4[nH]cc(c34)C[C@H]2N(C)C1 (some centres not stated)")
0.991

GET /values?readout=normalized growth&item= `NC[C@H]1O[C@H](O[C@H]2[C@H](O)[C@@H](O[C@H]3O[C@H](CO)[C@@H](O)[C@H](N)[C@H]3O)[C@H](N)C[C@@H]2N)[C@H](N)[C@@H](O)[C@@H]1O`
0.998

GET /values?readout=normalized growth&item= CC(=O)OC1CC[C@@]2(C)C(CCC3C2CC[C@]2(C)C(C4=CC(=O)OC4)C(OC(C)=O)CC32O)C1 (some centres not stated)
0.972

GET /values?readout=normalized growth&item= `C=CCSC[C@@H](N)C(=O)O`
0.982

GET /values?readout=normalized growth&item= NC[C@H]1O[C@H](OC2[C@@H](N)C[C@@H](N)[C@H](O[C@H]3O[C@H](CO)[C@@H](O)[C@H](N)[C@H]3O)[C@H]2O)[C@H](O)[C@@H](O)[C@@H]1O (some centres not stated)
0.999

GET /values?readout=normalized growth&item= `CC1(C)S[C@@H]2[C@H](NC(=O)[C@@H](N)c3ccc(O)cc3)C(=O)N2[C@H]1C(=O)O`
0.988

GET /values?readout=normalized growth&item= NC[C@@H]1O[C@H](O[C@@H]2[C@@H](CO)OC(O[C@@H]3[C@@H](O)[C@H](N)C[C@H](N)[C@H]3O[C@H]3O[C@H](CO)[C@@H](O)[C@H](O)[C@H]3N)[C@@H]2O)[C@H](N)[C@@H](O)[C@@H]1O (some centres not stated)
0.985

====

Below: a set of entries, each annotated with reported normalized growth.
Assay: chemical genetic growth profiling, strain panel (AID 1159580);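 further: tested at 20 µM; growth read once vehicle control cultures reached saturation at 30 °C; 1 = growth at the plate median or of vehicle wells; lower values mean less growth of the strain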
Conditions: S. cerevisiae deletion strains, growth OD, locus YDR150W, strain NUM1, stronger effect = lower value
Screen size: about 5,500 compounds; about 2,000 (36%) were called active. Roughly 18% stayed inconclusive and do not appear here. The list shows a part of the results.
No unit in the answer, please; the number alone is enough.

Check out these entries, answers already filled in.
>>> measured_value("CNC[C@H](O)c1cccc(O)c1")
1.01
>>> measured_value("NCCCCN")
1.01
>>> measured_value("COC(=O)C(N)CS (configuration not stated)")
0.996

GET /values?readout=normalized growth&item= `CP(=O)(O)CCCN`
0.983

GET /values?readout=normalized growth&item= `CO[C@@H]1[C@@H](OC(N)=O)[C@@H](O)[C@H](Oc2ccc3c(O)c(NC(=O)c4ccc(O)c(CC=C(C)C)c4)c(=O)oc3c2C)OC1(C)C`
1.02

GET /values?readout=normalized growth&item= Cc1ccc(OCC(O)C(C)NC(C)C)c2c1CCC2 (configuration not stated)
1.01

GET /values?readout=normalized growth&item= `N#Cc1c(Cl)cccc1Cl`
1.01

GET /values?readout=normalized growth&item= `COC(OC)c1ccc(C#N)c(=S)[nH]1`
0.996

GET /values?readout=normalized growth&item= `COc1ccc(-c2cc(=O)c3c(O)cc(O)cc3o2)cc1O`
1

GET /values?readout=normalized growth&item= `Cc1ccc(Sc2nc(C)c([N+](=O)[O-])c(C)c2C#N)cc1`
0.99

GET /values?readout=normalized growth&item= `CC(C)(C)OC(=O)NCc1n[nH]c(=S)n1-c1ccccc1`
1

GET /values?readout=normalized growth&item= `CC(C)(C)C1=CC(=O)C=C(C(C)(C)C)C1=O`
0.979

GET /values?readout=normalized growth&item= C[C@H]1[C@H](C)CC[C@]2(C(=O)O)CC[C@]3(C)C(=CCC4[C@@]5(C)C[C@@H](O)[C@H](O)[C@@](C)(CO)C5[C@H](O)C[C@]43C)[C@H]12 (some centres not stated)
0.996

GET /values?readout=normalized growth&item= `COC(=O)NC(=S)Nc1ccccc1NC(=S)NC(=O)OC`
0.996

GET /values?readout=normalized growth&item= `COc1cc(C)c2c(=O)c3c(O)cc(OC)cc3oc2c1`
1.02

GET /values?readout=normalized growth&item= `N#C/C(=C\c1c[nH]c2ccccc12)C(=O)c1ccc(O)c(O)c1`
1.01

GET /values?readout=normalized growth&item= `CN(C)CC[C@H](c1ccc(Cl)cc1)c1ccccn1`
1.01

====

Assay: chemical genetic growth profiling, strain panel (AID 1159580);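 further: tested at 20 µM; growth read once vehicle control cultures reached saturation at 30 °C; 1 = growth at the plate median or of vehicle wells; lower values mean less growth of the strain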
Settings: S. cerevisiae deletion strains, growth OD, locus YBL061C, strain skt5, stronger effect = lower value
Hit rate of the full screen: of about 5,500 compounds, about 2,000 (36%) were called active. Roughly 18% stayed inconclusive and do not appear here. This is one part of the list.
MET if normalized growth is below 1. NOT MET if not; exact matches included in NOT MET.

>>> class_name("O=c1c(O)cc([C@H]2Oc3cc(O)cc(O)c3C[C@H]2O)cc2c([C@H]3Oc4cc(O)cc(O)c4C[C@H]3O)cc(O)c(O)c12")
"NOT MET"

For `OC1(c2ccc(Cl)c(C(F)(F)F)c2)CCN(CCCC(c2ccc(F)cc2)c2ccc(F)cc2)CC1` , is the recorded normalized growth below the cut-off of 1?
MET

====

Assay: chemical genetic growth profiling, strain panel (AID 1159580);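 further: tested at 20 µM; growth read once vehicle control cultures reached saturation at 30 °C; 1 = growth at the plate median or of vehicle wells; lower values mean less growth of the strain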
Conditions: S. cerevisiae deletion strains, growth OD, locus YLL026W, stronger effect = lower value
The whole screen tested about 5,500 compounds, of which about 2,000 (36%) were called active. Inconclusive results (about 18%) are left out. The list shows a part of the results.
Below: a set of entries, each annotated with reported normalized growth.
No unit in the answer, please; the number alone is enough.

Check out these entries, answers already filled in.
>>> measured_value("CC1(C)[C@@H]2CC[C@@]1(C)C(=O)C2")
1.01
>>> measured_value("C/C=C/CC(C)C(O)C1C(=O)NC(CC)C(=O)N(C)CC(=O)N(C)C(CC(C)C)C(=O)NC(C(C)C)C(=O)N(C)C(CC(C)C)C(=O)NC(C)C(=O)NC(C)C(=O)N(C)C(CC(C)C)C(=O)N(C)C(CC(C)C)C(=O)N(C)C(C(C)C)C(=O)N1C (stereo unspecified)")
1.01
>>> measured_value("CN[C@H]1CC[C@@H](c2ccc(Cl)c(Cl)c2)c2ccccc21")
0.942
>>> measured_value("O=C(CCCN1CCC(O)(c2ccc(Cl)cc2)CC1)c1ccc(F)cc1")
0.947
>>> measured_value("O=C(CCCN1CCC2(CC1)C(=O)NCN2c1ccccc1)c1ccc(F)cc1")
0.978
>>> measured_value("C=CCSSSCC=C")
0.991

GET /values?readout=normalized growth&item= `CN(C)C(=O)C(CCN1CCC(O)(c2ccc(Cl)cc2)CC1)(c1ccccc1)c1ccccc1`
0.987

GET /values?readout=normalized growth&item= `NC[C@H]1O[C@H](O[C@H]2[C@H](O)[C@@H](O[C@H]3O[C@H](CO)[C@@H](O)[C@H](N)[C@H]3O)[C@H](N)C[C@@H]2N)[C@H](N)[C@@H](O)[C@@H]1O`
1

GET /values?readout=normalized growth&item= Cc1ccccc1N1C(=O)c2cc(S(N)(=O)=O)c(Cl)cc2NC1C (stereo unspecified)
1

GET /values?readout=normalized growth&item= C[C@H]1O[C@@H](O[C@H]2[C@@H](O)C[C@H](O[C@H]3[C@@H](O)C[C@H](O[C@H]4CC[C@]5(C)C6CC[C@]7(C)[C@@H](C8=CC(=O)OC8)CC[C@]7(O)C6CC[C@@H]5C4)O[C@@H]3C)O[C@@H]2C)C[C@H](O)[C@@H]1O (stereo partly specified)
0.977

GET /values?readout=normalized growth&item= `COc1c(O)cc2c(c1O)[C@H]1O[C@H](CO)[C@@H](O)[C@H](O)[C@@H]1OC2=O`
1.01
